# Tested on: K4 kissing-loop RNA reporter
# TEST SUMMARY: apparent KD of K4 kissing-loop reporter; higher = weaker reporter binding
# MEASUREMENT PARAMETERS: Eterna round: R107; input ligand: none
Each entry below carries its reported apparent KD of K4 kissing-loop reporter.
MEASURED ATTRIBUTE: apparent KD of K4 kissing-loop reporter (µM)

entry_sequence="AGGCACGAGCAAGGAUAUCGAGUAGAGUGAUGUUCUGCCUGGGUUGGCGCGUAAGGGCCUUCCCAGCGAGAAGGUGCUCGUGCCU [#2 Same State - FMN A Attempt #12 (HarryS)]" unit_tag=µM meas_value=0.939
entry_sequence="GGAUAGGACAGAGGAUAUCCUGAGGCAAGAAACUUGUCUCAUAAAGGAUGAAUCCUAGUGAUGUUAGGAGAAGGCUGUCCUAUCG [FmnBX 15 - #SwitchBubble #StaticStem #Palindromic]" unit_tag=µM meas_value=0.088
entry_sequence="GCCUAGCAGGGAAGGAGCGGCAUAAGCAUAGAUAAUAUGCAGUUAGUGAUGUUAAUACUAUGCCAGGUAGGUCGCCCUGCUAGGC [KL-SSArg B7]" unit_tag=µM meas_value=0.688
entry_sequence="UUAGAGAUCUCAGGAUAUCAGUGAUGUUGGUGUAAAGAUCUGAGAUAGAAUUCUAUCUCAGAUCAAUGAGAAGGGAGAUCUCAUU [AK3.2 Exc FMN B]" unit_tag=µM meas_value=0.192
entry_sequence="UUUGGUUUCUCGGCCGCCACUCGUUGGUUAUGGGCUUCAGGGAUAUAGUGAUGUUAUGUAUAGAAGAGGACCGGGAGAAGGUUUG [ExTryptoB.Dt]" unit_tag=µM meas_value=0.318
entry_sequence="CGUUUAUAGCAGGAUACCAGUACCCAUAAAGUACGUUAAUAGUAGAGUGAUGUUCUGAAGUACCCUUGGCAGCUUCCGGUAAGUG [#25 K4 Theophylline B Exclusion]" unit_tag=µM meas_value=0.239
entry_sequence="CGCAAGCAGCUAGUGAUGUUGGCCGCCUUGCGAGGACCGGUACGGCCGCCACUCGGAGGCGGCUACUGAUAAACCGUCUAACGGA [KL-XTryp-A10]" unit_tag=µM meas_value=0.0843
entry_sequence="AGACCACAAAGUGGUCAGUGUUCGCUGCAGCGAGGACCGGUACGGCCGCCACUCGCGAGUGAUGUUCGCGAGAGCAGCGAACACA [Omei KL Tryp A Exc A v6]" unit_tag=µM meas_value=0.0821
entry_sequence="CUUAAGGAGUGUCGUGCCGGACACUGGGAAGGAGCGCAAUUCUUUGCAGGUAGGUCGCCCAGUGAUGUUGGGUGGCGCUGUCGAA [Laatonbi]" unit_tag=µM meas_value=0.149
entry_sequence="UAUUAAUUGUCAGGAUAUCGUAUUCGAGUGAUGUUCGUAUAUCGACGAUAGUCGAUAUUAUUUAUACGAGAAGGGACAUUAUUUA [JR_SSFMNB_Sub005]" unit_tag=µM meas_value=0.33
entry_sequence=GCCUGGGCACGAAGGAGCGCCGUGACAGGUUACUGCAUUGGGCAGUGAUGUUGCUCAAUCUGGCAGGUAGGUCGCGUGCCCAGGC unit_tag=µM meas_value=0.11
entry_sequence="CGUAAGGAUUGACGACUGCAGAGCAAAAUAAAGGAUAUCGCAGCGUCGAGAAGGUUAUCGUGCGCCAGUGAUGUUGGCGGUAGUC [theeternabot_sameState_KL_FMN_A_22]" unit_tag=µM meas_value=0.108

* * *

# Tested on: MS2 coat protein
# TEST SUMMARY: apparent KD of MS2 coat protein; higher = weaker reporter binding
# MEASUREMENT PARAMETERS: Eterna round: R107; input ligand: arginine 13.2 mM
Known apparent KD of MS2 coat protein of a selection of sequences
MEASURED ATTRIBUTE: apparent KD of MS2 coat protein (nM)

entry_sequence="AGCUCGCAUCCUCUAGCGUCAAAGACGCGUCGAGGACCGGUACGGCCGCCACUCGACGUGAGGAUCACCCACGUCUAAGCGAGCA [TrypAX 10 #SwitchBubble #AlternativeMS2 #MS2Late #CuTurnoff]" meas_value=19.7
entry_sequence="GCGUUCUCUGCGGCCGCCACUCAAGGAGCUACAUAGCUCCUAGACAUGAGGAUCACCCAUGUGGCGAGGACCGGGUAGAUCCUUA [Same State Typptophan B GF7]" meas_value=76.3
entry_sequence="CUGUACAUCUCGGCCGCCACUGACAUGAGGAUCACCCAUGUAGUACCUGAGAUAGACAUAUCUUACAGGACCGGGAGGUGUGCAG [SSTryp B #31]" meas_value=12.2
entry_sequence="GGAUAGGACAGAAGGAGCGACAUGAGGAUCACCCAUGUCUACUACGUCGAAAGACGCUCAUGUCAGGUAGGUCGCUGUCCUAUCG [#28 Exclusion - Arginine B]" meas_value=70.9
entry_sequence="GGUCUCGCGGGCGAUACCAGCUUGAUCGUACUGGCCUGGUACAUGAGGAUCACCCAUGUAAGCCCUUGGCAGCGCGCGCGAGACC [#1 Exclusion - Theophylline B Attempt #5 (HarryS)]" meas_value=10.4
entry_sequence="GUGGCGAUCACGGCCGCCACUGAGCAGGUCGAGCUUGACAUGAGGAUCACCCAUGUCUGACGAUACAGGACCGGGUGAUCUCCGC [Titiinanon]" meas_value=16.5
entry_sequence="AUCUACGUGGGUGAUACCAGCUGGUUAGUACACAUGAGGAUCACCCAUGUGCAGGCAGGCAGCCCUUGGCAGCACCGCAGUGGCU [theeternabot_sameState_MS2_Theo_B_36]" meas_value=42.8
entry_sequence="AUCUAUAGAGCGGCCGCCACUGAAUACAUGAGGAUCACCCAUGUAAUGUUAAGGUGGUCCUAGCUCAGGACCGGGCUCUAUAGAU [Tryp B Ex t4]" meas_value=30
entry_sequence="UAUAUAUAUCACGAACUGUGGUGUAUGUCUCGAGGACCGGUACGGCCGCCACUCGCGCGGCCUCACAUGAGGAUCACCCAUGUCC [XTryp A #5]" meas_value=66.9
entry_sequence="AACAGGGUCUGAAGGAGCGCGAUCACAUGAGGAUCACCCAUGUGAAAUGGUAGAUGAUACUCGCAGGUAGGUCGCAGUACUUGAC [Same State Arginine B GF 15]" meas_value=54.2
entry_sequence="UGUAUGUGAUCUGAUACCAGUCCCUUGGCAGCAACAUGAGGAUCACCCAUGUAGAUACCAGACCCUUGGCAGCAGAUCGCAUACU [#DoubleAptamer 1]" meas_value=8.55

* * *

# Test system: MS2 coat protein
# TEST SUMMARY: apparent KD of MS2 coat protein; designed switch direction (-1 OFF switch, 1 ON switch): -1; higher = weaker reporter binding
# MEASUREMENT PARAMETERS: input ligand: none
Reported apparent KD of MS2 coat protein by item:
MEASURED ATTRIBUTE: apparent KD of MS2 coat protein (nM)

entry_sequence="GGAAGGAGAGGAUAUGAGGGAGAGAACAUGAGGAUCACCCAUGUGAGACCUCAGGAUCGAUCAGAAGGCUCAGUCC [AK-MS2ROC-r4-exclusion5-12] (Eterna round: R97, puzzle: Exclusion 5)" tgt="MS2 coat protein" unit_tag=nM meas_value=232
entry_sequence="CUAGCUAUUGUAGGAUAUCGAUGUGUUUCACAUCGAGAAGGACAUGAGGAUCACCCAUGUGAAAGGAUCGUGAGAUCCAGCUAG [JL ENG1 3.76] (Eterna round: R96, puzzle: Exclusion NG 1)" tgt="MS2 coat protein" unit_tag=nM meas_value=23.5
entry_sequence="UUAUACCUAGGAUAUACCUUUGGGUGUAGCCUAAUGUCUGGACAUGAGGAUCACCCAUGUAGAAGGAGGCGAAA [EX2 A.7] (Eterna round: R97, puzzle: Exclusion 2)" tgt="MS2 coat protein" unit_tag=nM meas_value=78
entry_sequence="AAAUUGUGAGGAUAUUCGUAGUACUCGGAGACGAGUAUUACGGAGAAGGCACAUGAGGAUCACCCAUGUUCCUU [Mat - Exclusion 4 - JL Mod - D20] (Eterna round: R97, puzzle: Exclusion 4)" tgt="MS2 coat protein" unit_tag=nM meas_value=16.3
entry_sequence="GCUGGUCAAGGAUAUACAUGAGGAUCACCCAUGUGAUCAGCAGUCCUCGGACUGCAAUGUAGAAGGUGACCAGC [E3/1-C1] (Eterna round: R97, puzzle: Exclusion 3)" tgt="MS2 coat protein" unit_tag=nM meas_value=458

* * *

# Test system: K4 kissing-loop RNA reporter;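 further: bound reporter read as fluorescence of individual clusters on recovered sequencing chips by microscopy, with normalized cluster intensities fitted with a binding model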
# TEST SUMMARY: apparent KD of K4 kissing-loop reporter; higher = weaker reporter binding
# MEASUREMENT PARAMETERS: Eterna round: R107; input ligand: arginine 13.2 mM
Use 400 nM as the dividing line for apparent KD of K4 kissing-loop reporter, with the line itself on the Criterion met side and lower values as Criterion not met.

entry_sequence="AGGCCCGGCCGAAAGGCCGGGCCAAGAGAUACCAGCAGCGAAAGCUGCCCUUGGCAGCUCACUUAGUGAUGUUAAGAGAUAAAUG [SS Theo A Tesla 1.2]" tgt="K4 kissing-loop RNA reporter" group="Criterion not met"
entry_sequence="UUCGUAGUAGGAAACUAUUACGAAAAGGAAGGAGCGGCGAAGAAGCCAGGUAGGUCGCCUAUUGACAGUGAUGUUGUUAUAUAGA [#10]" tgt="K4 kissing-loop RNA reporter" group="Criterion not met"
entry_sequence="GCCAUCAGGUCGCAAGACCUGAUAGCCGAUACCAGCGCGAAGGUGCGCCCUUGGCAGCGGCACCGAGUGAUGUUCGGUCAGGCGG [#2 Same State - Theophylline A Attempt #3 (HarryS)]" tgt="K4 kissing-loop RNA reporter" group="Criterion met"
entry_sequence="GGAUAGGACAGAGGAUAUGGUAGUGAUGUUACCACGAGACAAAGUCUCGAAAAGCUACAAAGUAGCCCAGAAGGCUGUCCUAUCG [FmnBX 25 #SwitchBubble #StaticStem #Palindromic]" tgt="K4 kissing-loop RNA reporter" group="Criterion not met"
entry_sequence="GGGAGUGAUGUUCCCACGUUGUCGGUCCUCCGAGGACCGGUACGGCCGCCACUCGCGACCCAGUGAUGUUGGGACUCACCGUACC [Exclusion Tryptophan A Gf 12]" tgt="K4 kissing-loop RNA reporter" group="Criterion not met"
